ASSAY_COMMENT: inhibitors of poly I:C-induced TLR3 signaling, primary screen, cell-based, poly I:C stimulus, luciferase, 10K MLSCN set (AID 602277)
EXPERIMENTAL_CONDITIONS: HEK293-TLR3 RL24 IRF3 luciferase reporter, at 10 µM
Calls of active or inactive are those of the source.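 How the source made its calls: active means inhibition of the reporter signal at or above 50%; inactive means inhibition below 50%.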
In this exercise, the only acceptable responses are y for active, n for inactive

Illustrative cases are given below, each with its answer.
{"columns": ["MOLECULE", "ASSIGNED_LABEL"],
 "data": [
  ["CN(CCO)CC(O)Cn1cnc2c1c(=O)n(C)c(=O)n2C (stereo not given) (tested in a mixture with another compound)", "n"],
  ["COc1ccc2nc(S(=O)Cc3ncc(C)c(OC)c3C)[nH]c2c1 (stereo not given)", "n"],
  ["CCN(CC)CCN1C(=O)C(O)=C(C(=O)c2ccco2)C1c1ccccn1 (stereo not given)", "n"],
  ["CC(C)C(=O)N1CCN(c2nc(-c3ccccc3)c3c(c2C#N)CCCC3)CC1", "n"],
  ["CN(C)c1ccc(O)c2c1CC1CC3[C@@H](N(C)C)C(=O)C(C(N)=O)=C(O)[C@]3(O)C(=O)C1=C2O (stereo not given in full)", "n"]
]}

Per the assay record, what outcome was assigned to Cc1cc(N2C(=O)C(=O)/C(=C(/O)c3ccc(F)cc3)C2c2ccc(F)cc2)no1 (stereo not given) ? n

Per the assay record, what outcome was assigned to `CC(=O)OCC(=O)[C@@]12OC3(CCCC3)O[C@@H]1C[C@H]1[C@@H]3CCC4=CC(=O)C=C[C@]4(C)[C@@]3(F)[C@@H](O)C[C@@]12C` ? n

Per the assay record, what outcome was assigned to `C[C@]12CCC(=O)C=C1CC[C@@H]1[C@@H]2C(=O)C[C@@]2(C)[C@H]1CC[C@]2(O)C(=O)CO` ? n

* * *

Would you kindly list inhibition for each of these molecules?
ASSAY_COMMENT: inhibitors of TNFa-induced NFkB p65 translocation, primary screen, imaging, HUVEC, MLSMR starter and 10KST1 sets (AID 438);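 further: compound added about 3h40 before a 20 min TNFalpha stimulation; signal is the nuclear over cytoplasmic p65 intensity ratio per well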
EXPERIMENTAL_CONDITIONS: HUVEC TNFa-induced p65 nuclear translocation; at 2 µM, hits give high values, 0% TNFa-plus-vehicle, 100% no-TNFa wells
Numbers only, in %.

See these solved cases before continuing.
{"columns": ["MOLECULE", "SCALE_UNIT", "READING"],
 "data": [
  ["Cc1nc2ccccc2cc1O", "%", -0.5],
  ["C=CCn1c(=S)[nH]c2nc3c(cc2c1=O)CCCC3", "%", -1]
]}

For every item below, please supply its inhibition.
1. N=c1nc(N2CCCCC2)cc(N)n1O
2. O=C(NC1(C(F)(F)F)C(=O)Nc2c1c(=O)[nH]c(=O)n2-c1ccccc1)c1cccnc1 (configuration not stated)
3. CC1(C)Cc2c(c(N3CCOCC3)nc3sc(C#N)c(N)c23)CS1
4. COC(=O)c1ccc(C2C(C(=O)c3cc4ccccc4o3)=C(O)C(=O)N2CCCN(C)C)cc1 (configuration not stated)
5. COc1cc(OC)cc(C(=O)N2CCC(N3CCCCCC3)CC2)c1
6. OCCOCCNc1ncnc2c1cnn2-c1ccccc1
7. CN(C)CCC=C1c2ccccc2CCc2ccccc21
8. Cc1cc(/C=N\O)c(C)n1-c1ccncc1

[0.9, 1.9, -0.4, -8.1, -26.6, -2, -3.1, -1.1]

For every item below, please supply its inhibition.
1. O=[N+]([O-])c1cccc2cn[nH]c12
2. COc1cc(-n2c3nc4ccccc4nc3c3c(=O)n(Cc4ccco4)cnc32)cc(OC)c1OC
3. Cc1ccc2cc(CN(C(=O)c3ccco3)c3ccccc3C)c(=O)[nH]c2c1
4. CC1(C)NC(=O)N(CC(O)Cn2nnc3ccccc32)C1=O (configuration not stated)

1: 1.2; 2: -15.2; 3: 8.3; 4: 3.9

For every item below, please supply its inhibition.
1. O=C(OCCN1CCOCC1)c1ccc(OCCN2CCOCC2)cc1
2. Cc1nn(-c2ccccc2)c2c1C(c1ccc(F)cc1F)C(C#N)=C(N)O2 (configuration not stated)
3. COC(=O)c1ccc(OC(=O)c2ccc(OC)c(OC)c2)c(OC)c1
4. CNC(=O)Nc1cccc(NC(=O)NC)n1

1: -2.2; 2: -19.6; 3: -0.3; 4: -2.8

For every item below, please supply its inhibition.
1. Cc1nc2sccn2c(=O)c1CCN1CCC(=C(c2ccc(F)cc2)c2ccc(F)cc2)CC1
2. N#CC1=C(N)N2C(=C(C#N)C1c1ccccc1)Sc1ccccc12 (configuration not stated)
3. S=c1[nH]nc(-c2ccccc2)n1Cc1ccccc1
4. N#CC12CCCCC1CC1CCCCC1(C#N)N2Cc1cccnc1 (configuration not stated)

[-5.2, -14.8, 0, -10.3]

For every item below, please supply its inhibition.
1. CC1(C)Cc2c(C#N)c(SCC(=O)c3ccccc3)nc(N3CCCC3)c2CO1
2. COC(=O)CC1=C(C(=O)OC)C(c2ccc3c(c2Cl)OCO3)C(C#N)=C(N)O1 (configuration not stated)

[-6.5, -3]

For every item below, please supply its inhibition.
1. C1CNCCNCCNCCN1
2. O=C(C1CCN(c2nnc(-n3cccc3)s2)CC1)N1CCc2ccccc2C1
3. CCOc1ccc(C2=Nn3c(nnc3-c3ccccn3)SC2)cc1

1: -6.4; 2: -5; 3: 1.1
